assay: Example C: HTL0018318 plasma and urine pharmacokinetics; format: in vivo, human; settings: human, plasma, oral, 25 mg + DPZ, 5th dose
readout kind: Cmax (ng/mL)
Give bare numbers, in ng/mL.

Q) Dear colleague, I am looking for the recorded Cmax of the following compound: CCOC(=O)N1C2CCC1CC(N1CCC3(CC1)CNC(=O)C3)C2 (stereo not shown) [HTL0018318]
A) 171

====

test: Example D: HTL0018318 plasma pharmacokinetics; format: in vivo, human; conditions: human, plasma, 5 mg, visit day 6; read-out: AUC0-4 h, arithmetic mean ± SD
readout kind: AUC(0-t)
Express the reported value numerically, then name its unit.

Q) Which AUC(0-t) is listed for CCOC(=O)N1C2CCC1CC(N1CCC3(CC1)CNC(=O)C3)C2 (stereo not shown) ?
A) 146 ng·h/mL

====

experiment: Example C: HTL0018318 plasma and urine pharmacokinetics; type: in vivo, human; conditions: human, urine and plasma, oral, 15 mg, 15 mg only, 5th dose
readout kind: CL renal (mL/min)
Give bare numbers, in mL/min.

Q) For CCOC(=O)N1C2CCC1CC(N1CCC3(CC1)CNC(=O)C3)C2 (stereo not shown) , what is its reported CL renal?
A) 104

====

experiment: Example C: HTL0018318 plasma and urine pharmacokinetics; assay type: in vivo, human; conditions: human, plasma, oral, 15 mg, 15 mg only, 1st dose; Tau = 24 hrs; read-out: AUC0-tau (mean)
readout kind: AUC (ng·h/mL)
Give bare numbers, in ng·h/mL.

Q) Report AUC for CCOC(=O)N1C2CCC1CC(N1CCC3(CC1)CNC(=O)C3)C2 (stereo not shown) please.
A) 919

====

assay: Example D: HTL0018318 plasma pharmacokinetics; format: in vivo, human; details: human, plasma, 5 mg, visit day 6; read-out: Cmax, arithmetic mean ± SD
readout kind: Cmax
Please answer using the number first and the unit second.

Q) For the molecule shown here, CCOC(=O)N1C2CCC1CC(N1CCC3(CC1)CNC(=O)C3)C2 (stereo not shown) , give the reported Cmax.
A) 50.5 ng/mL

====

test: Example D: HTL0018318 plasma pharmacokinetics; type: in vivo, human; conditions: human, plasma, 10 mg, visit day 28, n = 1; read-out: Cmax
readout kind: Cmax (ng/mL)
Numbers only, in ng/mL.

Q) Entry under review: CCOC(=O)N1C2CCC1CC(N1CCC3(CC1)CNC(=O)C3)C2 (stereo not shown) . Reported Cmax?
A) 89

====

test: Example D: HTL0018318 plasma pharmacokinetics; type: in vivo, human; conditions: human, plasma, 5 mg, visit day 1; read-out: AUC0-4 h, arithmetic mean ± SD
readout kind: AUC(0-t) (ng·h/mL)
Give bare numbers, in ng·h/mL.

Q) Entry CCOC(=O)N1C2CCC1CC(N1CCC3(CC1)CNC(=O)C3)C2 (stereo not shown) [HTL0018318] has what AUC(0-t)?
A) 113

====

experiment: Example D: HTL0018318 plasma pharmacokinetics; assay type: in vivo, human; conditions: human, plasma, 25 mg, visit day 11; read-out: AUC0-4 h, arithmetic mean ± SD
readout kind: AUC(0-t) (ng·h/mL)
Give bare numbers, in ng·h/mL.

Q) Quick one: AUC(0-t) for CCOC(=O)N1C2CCC1CC(N1CCC3(CC1)CNC(=O)C3)C2 (stereo not shown) ?
A) 650

====

assay: Example C: HTL0018318 plasma and urine pharmacokinetics; format: in vivo, human; conditions: human, plasma and urine, oral, 25 mg + DPZ, 5th dose
readout kind: CL renal (mL/min)
Give bare numbers, in mL/min.

Q) What value of CL renal has been reported for the following compound? CCOC(=O)N1C2CCC1CC(N1CCC3(CC1)CNC(=O)C3)C2 (stereo not shown)
A) 113
